All values here come from patent US8859549B2.

Exercise: state measured EC50 for each of the compounds provided.
Target: KCNQ 2/3 channels (Homo sapiens, UniProt O43525+O43526)
Assay: KCNQ 2/3 channel activation, thallium flux FLIPR assay (BTC-AM dye)
Conditions: HEK293 cells stably expressing human KCNQ2 and KCNQ3 subunits; thallium-induced fluorescence, 4 min compound incubation
One number for each entry, in nM.

// known answers, use as guide
>>> value_observed("CN(C)c1ccc(-c2nn(NC(=O)CC3CC4CCC3C4)c(=O)c3ccccc23)cn1 (racemic)")
378
>>> value_observed("O=C(Cc1cccc(Br)c1)Nn1nc(N2CCOCC2)c2ccccc2c1=O")
2900
>>> value_observed("CC(C)(C)OC(=O)NCc1nn(NC(=O)CC2CC3CCC2C3)c(=O)c2ccccc12 (racemic)")
294

Now consider the entry below.
[Q] Give the reported EC50 for this compound. `O=C(Cc1ccc(F)cc1)Nn1nc(S(=O)(=O)c2ccccc2)c2ccccc2c1=O`
[A] 79.2

====

Biological target: KCNQ 2/3 channels (Homo sapiens, UniProt O43525+O43526)
Construct: expressed in transfected cells; host or cells: HEK293
Experiment: KCNQ 2/3 channel activation, thallium flux FLIPR assay (BTC-AM dye)
Type: cell-based
Conditions: HEK293, maximum response relative to the response of 10 μM retigabine (set at 100%); HEK293 KCNQ2/KCNQ3 cells; read-out: % MAX
Property: Emax (%)
Answers are plain numbers, in %.

>>> value_observed("O=C(CC1CC2CCC1C2)Nn1nc(-c2ccc(C(F)(F)F)nc2)c2ccccc2c1=O (racemic)")
149

Batch request: Emax per item, same order as input.
1. Cc1ccsc1-c1nn(NC(=O)CC2CC3CCC2C3)c(=O)c2ccccc12 (racemic)
2. CC(C)(C)C(=O)NCc1nn(NC(=O)Cc2ccc(Cl)cc2)c(=O)c2ccccc12
3. O=C(Cc1cc(F)cc(F)c1)Nn1nc(C2=CCOCC2)c2ccccc2c1=O
4. COc1cc(CC(=O)Nn2nc(N3CCOCC3)c3ccccc3c2=O)cc(OC)c1
5. O=C(Cc1cc(F)cc(F)c1)Nn1nc(S(=O)(=O)c2ccccc2)c2ccccc2c1=O
6. O=C(CC1CC2CCC1C2)Nn1nc(SCc2ccccc2)c2ccccc2c1=O (racemic)
7. O=C(CC1CC2CCC1C2)Nn1nc(Cc2ccc(Cl)nc2)c2ccccc2c1=O (racemic)

[A]
1: 140; 2: 89.1; 3: 140; 4: 33.9; 5: 79.9; 6: 197; 7: 122

Batch request: Emax per item, same order as input.
1. O=C(Cc1cccc([N+](=O)[O-])c1)Nn1nc(N2CCOCC2)c2ccccc2c1=O
2. O=C(Cc1ccc(Cl)cc1)Nn1nc(N2CCCC2)c2ccccc2c1=O
3. O=C(CC1CC2CCC1C2)Nn1nc(C2=CCOCC2)c2ccccc2c1=O (racemic)
4. O=C(Cc1ccc(Cl)cc1)Nn1nc(Oc2ccccc2)c2ccccc2c1=O
5. O=C(CC1CC2CCC1C2)Nn1nc(C(=O)c2ccccc2)c2ccccc2c1=O (racemic)

[A]
1: 32.8; 2: 136; 3: 140; 4: 87.4; 5: 135

Batch request: Emax per item, same order as input.
1. O=C(Cc1cc(F)cc(F)c1)Nn1nc(N2CCCC2)c2ccccc2c1=O
2. O=C(Cc1ccc(Cl)cc1)Nn1nc(N2CCOCC2)c2ccccc2c1=O

[A]
[145, 117]

Batch request: Emax per item, same order as input.
1. O=C(CC1CC2CCC1C2)Nn1nc(-c2ccnc(C(=O)O)c2)c2ccccc2c1=O (racemic)
2. O=C(CC(F)(F)F)Nn1nc(N2CCOCC2)c2ccccc2c1=O

[A]
183
49.1

Batch request: Emax per item, same order as input.
1. CC1CN(c2nn(NC(=O)CC(C)(C)c3ccccc3)c(=O)c3ccccc23)CC(C)O1 (stereo not drawn)
2. O=C(Cc1cc(F)cc(F)c1)Nn1nc(Sc2ccccc2)c2ccccc2c1=O
3. O=C(Cc1ccc(Cl)cc1)Nn1nc(CNC(=O)OCC(F)(F)F)c2ccccc2c1=O
4. COc1ccc(-c2nn(NC(=O)CC3CC4CCC3C4)c(=O)c3ccccc23)cn1 (racemic)
5. COc1cccc(CC(=O)Nn2nc(N3CCOCC3)c3ccccc3c2=O)c1OC

[A]
[123, 116, 33.7, 137, 23.6]

Batch request: Emax per item, same order as input.
1. Cc1cccc(CC(=O)Nn2nc(N3CCOCC3)c3ccccc3c2=O)c1
2. O=C(CC1CC2CCC1C2)Nn1nc(-c2cccnc2)c2ccccc2c1=O (racemic)

[A]
1: 103; 2: 129

Batch request: Emax per item, same order as input.
1. COc1ccc(CC(=O)Nn2nc(N3CCOCC3)c3ccccc3c2=O)cc1
2. CC(C)(C)OC(=O)NCc1nn(NC(=O)Cc2ccc(C(F)(F)F)cc2)c(=O)c2ccccc12
3. CS(=O)(=O)c1ccc(CC(=O)Nn2nc(Sc3ccccc3)c3ccccc3c2=O)cc1
4. O=C(Cc1ccc(Cl)cc1)Nn1nc(CNS(=O)(=O)C(F)(F)F)c2ccccc2c1=O

[A]
[18.7, 40.7, 92.6, 33.6]

Batch request: Emax per item, same order as input.
1. O=C(Cc1cccc(C(F)(F)F)c1)Nn1nc(N2CCOCC2)c2ccccc2c1=O
2. O=C(CC1CC2CCC1C2)Nn1nc(N2CCCC2)c2ccccc2c1=O (racemic)
3. NCc1nn(NC(=O)Cc2ccc(Cl)cc2)c(=O)c2ccccc12
4. O=C(CC1CC2CCC1C2)Nn1nc(Sc2ccc(Br)cc2)c2ccccc2c1=O (racemic)

[A]
62.1
147
8.66
180

[Q] Give the reported Emax for this molecule. CN(C)c1ccc(-c2nn(NC(=O)CC3CC4CCC3C4)c(=O)c3ccccc23)cn1 (racemic)
[A] 122
